Test system: SK-MEL-2
Assay: NCI tumour cell line growth inhibition, 48 h
The source made the active and inactive calls. Cut-off read from the data, not from the text of the source: active = GI50 up to about 1.1 µM and inactive = higher.
Respond with a class label; see active, inactive

Below, 8 molecules whose answers are already recorded.
Request: GET /call?item= COc1ccc2nc3ccc(OC)cc3c(S(=O)(=O)Cc3ccc([N+](=O)[O-])cc3)c2c1 returns the recorded outcome of this test.
Result: inactive

Request: GET /call?item= CC(=O)N(C)c1ccc2c(ccc[n+]2[O-])c1[N+](=O)[O-] returns the recorded outcome of this test.
Result: inactive

Request: GET /call?item= CN(C)c1ccc(/C=N\NC(=O)c2ccccc2Nc2ccccc2C(=O)N/N=C/c2ccc(N(C)C)cc2)cc1 returns the recorded outcome of this test.
Result: inactive

Request: GET /call?item= COc1cc2c(cc1O)C(C)Cc1cc3c(cc1N(C)CC2)OCO3 (centres undefined) returns the recorded outcome of this test.
Result: inactive

Request: GET /call?item= CC(C)(C)OC(=O)NC(CCCCNC(=O)OCc1ccccc1)C(=O)NCCNc1ccc(NCCNC(=O)C(CCCCNC(=O)OCc2ccccc2)NC(=O)OC(C)(C)C)c2c1C(=O)c1ccccc1C2=O (centres undefined) returns the recorded outcome of this test.
Result: inactive

Request: GET /call?item= COC(=O)/C=C1/SC(/C(=C(/[O-])OC)[n+]2ccc3ccccc3c2)=NC1=O returns the recorded outcome of this test.
Result: inactive

Request: GET /call?item= COc1cc2cc(OC)c3cc4c(cc3c2c(OC)c1OC)OCO4 returns the recorded outcome of this test.
Result: inactive

Request: GET /call?item= CCC1=NC(C(F)(F)F)(C(F)(F)F)N=C(N2CCOCC2)O1 returns the recorded outcome of this test.
Result: inactive

New cases:
Request: GET /call?item= Cc1ccc(Nc2nc(C)c(C(/C=C/c3ccc4c(c3)OCO4)=N/Nc3ccc([N+](=O)[O-])cc3[N+](=O)[O-])s2)c([N+](=O)[O-])c1 returns the recorded outcome of this test.
Result: inactive

###

Test system: OVCAR-5
Assay: NCI tumour cell line growth inhibition, 48 h
Activity calls are given as the source filed them. Cut-off read from the data, not from the text of the source: active = GI50 up to about 1.1 µM and inactive = higher.
recordedMetric: GI50

Previously resolved entries follow.
Request: Quick one: GI50 for COc1cc2c(cc1O)C(C)Cc1cc3c(cc1N(C)CC2)OCO3 (centres undefined) ?
Result: 23.1 µM (inactive)

Request: Quick one: GI50 for CN1C(NN)=NS(=O)(=O)c2ccccc21 ?
Result: > 100 µM (inactive)

Request: Quick one: GI50 for CCN(C(C)=N)c1ccccc1 ?
Result: > 100 µM (inactive)

New cases:
Request: Quick one: GI50 for CC(C)(C)OC(=O)NC(CCCCNC(=O)OCc1ccccc1)C(=O)NCCNc1ccc(NCCNC(=O)C(CCCCNC(=O)OCc2ccccc2)NC(=O)OC(C)(C)C)c2c1C(=O)c1ccccc1C2=O (centres undefined) ?
Result: > 100 µM (inactive)

Request: Quick one: GI50 for CC(C)(C)OC(=O)N1Cc2cc(O)ccc2C[C@H]1C(=O)O ?
Result: > 100 µM (inactive)

###

Test system: UO-31
Assay: NCI tumour cell line growth inhibition, 48 h
The source made the active and inactive calls. Rule as the data show it: active = GI50 up to about 1.1 µM and inactive = higher.
Respond with a class label; see active, inactive

Below, 5 compounds whose answers are already recorded.
Request: GET /call?item= CC1(C)OC(=O)C(=C2CC(c3ccccc3)c3ccccc32)C(=O)O1 (centres undefined) returns the recorded outcome of this test.
Result: inactive

Request: GET /call?item= CCCc1c(OC)c(=O)c2c(OC)cc(OC)c3c4c(OC)cc(OC)c5c(=O)c(OC)c(CCC)c(c1c23)c54 returns the recorded outcome of this test.
Result: inactive

Request: GET /call?item= O=C(CC(=O)N(C(=O)c1ccccc1)c1ccc(Cl)cc1)N/N=C\c1cc(/N=N/c2ccccc2Cl)ccc1O returns the recorded outcome of this test.
Result: inactive

Request: GET /call?item= COc1cc(/C=C/C(=O)c2sc(Nc3ccccc3)nc2C)ccc1O returns the recorded outcome of this test.
Result: inactive

Request: GET /call?item= O=C(/C=C/c1ccc(Br)cc1)c1ccc(NCc2nc3ccccc3[nH]2)cc1 returns the recorded outcome of this test.
Result: inactive

New cases:
Request: GET /call?item= COc1cc(C(C)c2cc3c(cc2OCCNC(=O)COc2cc4c(cc2C(C)c2cc(OC)c(OC)c(OC)c2)OCO4)OCO3)cc(OC)c1OC (centres undefined) returns the recorded outcome of this test.
Result: inactive

Request: GET /call?item= O=c1nc2sc3ccc4ccccc4c3n2nc1-c1ccccc1 returns the recorded outcome of this test.
Result: inactive

Request: GET /call?item= O=C(NC1CCCCC1)c1cc2ccccc2cc1O returns the recorded outcome of this test.
Result: inactive

Request: GET /call?item= C[C@H](N)C(=O)N[C@@H]1[C@H]2C(=C(O)C[C@@H](O)[C@@H]2O)C(=O)O[C@]1(C)C(Cl)Cl [BACTOBOLIN] returns the recorded outcome of this test.
Result: active

###

Tested on: RXF 393
Test: NCI tumour cell line growth inhibition, 48 h
Active and inactive are the calls of the source. Rule as the data show it: active = GI50 up to about 1.1 µM and inactive = higher.
Respond with a class label; see active, inactive

Below, 10 compounds whose answers are already recorded.
Request: GET /call?item= c1ccc2c(c1)nnn2CN1CCOCC1 returns the recorded outcome of this test.
Result: inactive

Request: GET /call?item= CC(=O)Nc1ccc(S(=O)(=O)[N-]C2C(=O)c3ccccc3C(=O)C2[n+]2ccccc2)cc1 (configuration not stated) returns the recorded outcome of this test.
Result: inactive

Request: GET /call?item= O=C(NO)c1ccc(C(=O)NO)cc1 returns the recorded outcome of this test.
Result: inactive

Request: GET /call?item= CCN(C(C)=N)c1ccccc1 returns the recorded outcome of this test.
Result: inactive

Request: GET /call?item= CCCCc1ccc(Nc2nc3c(ncn3COCCBr)c(=O)[nH]2)cc1 returns the recorded outcome of this test.
Result: inactive

Request: GET /call?item= CC(C)(C)c1cc(O)c2c(c1O)C(=O)CCC2 returns the recorded outcome of this test.
Result: inactive

Request: GET /call?item= CCCCOC(=O)CN1C(=O)c2ccccc2C1=O returns the recorded outcome of this test.
Result: inactive

Request: GET /call?item= O=[N+]([O-])c1nccn1CC(O)c1ccccc1 (configuration not stated) returns the recorded outcome of this test.
Result: inactive

Request: GET /call?item= CSC(=S)N/N=C/c1nccc2ccccc12 returns the recorded outcome of this test.
Result: active

Request: GET /call?item= CC(=O)CC(O)(C(F)(F)Cl)C(F)(Cl)Cl (configuration not stated) returns the recorded outcome of this test.
Result: inactive

New cases:
Request: GET /call?item= CCCc1c(OC)c(=O)c2c(OC)cc(OC)c3c4c(OC)cc(OC)c5c(=O)c(OC)c(CCC)c(c1c23)c54 returns the recorded outcome of this test.
Result: inactive

Request: GET /call?item= O=c1c2ccccc2[nH]c2cc(O)cc(O)c12 returns the recorded outcome of this test.
Result: inactive

###

Test system: SF-539
Experiment: NCI tumour cell line growth inhibition, 48 h
Activity calls are given as the source filed them. Rule as the data show it: active = GI50 up to about 1.1 µM and inactive = higher.
Listing of recorded GI50 by entry.

Previously resolved entries follow.
Request: Quick one: GI50 for CCC1CCCCN1CC(C(C)=O)C(c1ccccc1)c1c(O)c2ccccc2oc1=O (stereo not given) ?
Result: > 100 µM (inactive)

Request: Quick one: GI50 for CCC1OC2C(CC=C(C)C)=C3OC(C)(O)C(C)(CC)C(=O)C3=C3OC(=O)C=C1C32 (stereo not given) ?
Result: 8.55 µM (inactive)

Request: Quick one: GI50 for CCOC(=O)c1c[nH]c2cc3c(cc2c1=O)CCS3 ?
Result: > 100 µM (inactive)

Request: Quick one: GI50 for COc1cc(/C=C2\N=C(c3ccccc3)N(/N=C/c3cc4cc(C)ccc4nc3Cl)C2=O)cc(OC)c1OC ?
Result: 23.4 µM (inactive)

Request: Quick one: GI50 for COc1ccc2cc(C(=O)NCCc3ccccc3)ccc2c1OC ?
Result: 32.2 µM (inactive)

Request: Quick one: GI50 for COC(=O)c1c(C)[n+]([O-])c2cc(Cl)c(Cl)cc2[n+]1[O-] ?
Result: 18.9 µM (inactive)

Request: Quick one: GI50 for Cc1ccc2nc(Cl)c(/C=N/N3C(=O)/C(=C/c4ccc(N(C)C)cc4)N=C3c3ccccc3)cc2c1 ?
Result: 18.2 µM (inactive)

Request: Quick one: GI50 for S=C1ON=C(c2ccccc2)/C1=C/Nc1ccccc1 ?
Result: 97.7 µM (inactive)

New cases:
Request: Quick one: GI50 for C[N+](C)(C)CC1CCC(C[N+](C)(C)C)C1=O (stereo not given) ?
Result: 7.74 µM (inactive)

Request: Quick one: GI50 for COc1cc2c(cc1OC)C(=O)/C(=C/c1cc(Cl)cc(Cl)c1)C2 ?
Result: 2.49 µM (inactive)

###

Tested on: OVCAR-5
Test: NCI tumour cell line growth inhibition, 48 h
Calls of active or inactive are those of the source. Cut-off read from the data, not from the text of the source: active = GI50 up to about 1.1 µM and inactive = higher.
Respond with a class label; see active, inactive

Below, 10 compounds whose answers are already recorded.
Request: GET /call?item= O=[N+]([O-])c1ccc(C2N3CCCCC3[C@@H]3c4[nH]c5ccccc5c4CCN23)cc1 (stereo partly specified) returns the recorded outcome of this test.
Result: inactive

Request: GET /call?item= c1ccc2c(c1)nnn2CN1CCOCC1 returns the recorded outcome of this test.
Result: inactive

Request: GET /call?item= O=C(Nc1ccccc1)Oc1ccc(C(=S)Nc2ccc(Br)cc2)cc1 returns the recorded outcome of this test.
Result: inactive

Request: GET /call?item= CCCC(O)[C@@H](O)c1ccc2c(c1O)C(=O)c1c(OC)cccc1C2=O (stereo partly specified) returns the recorded outcome of this test.
Result: inactive

Request: GET /call?item= Cc1[nH]c2ccccc2c1-c1n[nH]c(=O)c2ccccc12 returns the recorded outcome of this test.
Result: inactive

Request: GET /call?item= COc1cc2cc(OC)c3cc4c(cc3c2c(OC)c1OC)OCO4 returns the recorded outcome of this test.
Result: inactive

Request: GET /call?item= C#CCOC(=O)C(N)C(C)O (stereo unspecified) returns the recorded outcome of this test.
Result: inactive

Request: GET /call?item= COC(=O)c1ccc(C)cc1CC1Cc2cc(C)ccc2C1=O (stereo unspecified) returns the recorded outcome of this test.
Result: inactive

Request: GET /call?item= COC(=O)/C=C1/SC(/C(=C(/[O-])OC)[n+]2ccc3ccccc3c2)=NC1=O returns the recorded outcome of this test.
Result: inactive

Request: GET /call?item= COC(=O)c1c(C)[n+]([O-])c2cc(Cl)c(Cl)cc2[n+]1[O-] returns the recorded outcome of this test.
Result: inactive

New cases:
Request: GET /call?item= CCC(=O)OC[n+]1ccc2c(C)c3[nH]c4ccc(OC)cc4c3c(C)c2c1 returns the recorded outcome of this test.
Result: active
